testSystem: p38γ (Homo sapiens, UniProt P53778)
Construct: purchased Promega
Sequence (P53778 whole entry): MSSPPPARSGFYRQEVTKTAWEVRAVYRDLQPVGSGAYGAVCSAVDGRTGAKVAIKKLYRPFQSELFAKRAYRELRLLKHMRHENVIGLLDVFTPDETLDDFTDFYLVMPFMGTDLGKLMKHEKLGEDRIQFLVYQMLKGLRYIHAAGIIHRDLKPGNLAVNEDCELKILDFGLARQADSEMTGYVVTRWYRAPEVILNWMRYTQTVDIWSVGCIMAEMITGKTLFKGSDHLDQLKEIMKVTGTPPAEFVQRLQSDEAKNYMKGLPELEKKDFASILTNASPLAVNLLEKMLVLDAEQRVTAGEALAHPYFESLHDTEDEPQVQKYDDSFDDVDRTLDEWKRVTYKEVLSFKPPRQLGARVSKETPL
testDescription: p38γ kinase enzyme system with ADP-Glo kinase assay
Format: biochemical
setupConditions: 12-point four-fold dilution from 100 μM; 50 μM ATP
valueKind: IC50 (nM)
Give the value in nM but do not write nM after it.

IN: I'm curious: which IC50 was measured for O=C(C1CC(=O)N(C2CCS(=O)(=O)C2)C1)N1CCC(c2c[nH]c3ncccc23)CC1 (stereo not shown) tested on p38γ (Homo sapiens, UniProt P53778)?
OUT: 16.8

Source listed as paper PMC10139033.
